Assay: Toxicokinetics of racemic ketoconazole in another 28-day dog study (b)
Conditions: male, beagle, dog, plasma, po, 40 mg/kg, Drug concentration in plasma, dogs, study b, powder, 40 mg/kg oral, day 28, M, 1 h
METRIC NAME: concentration at 1 h (ng/mL)

INSERT INTO measurements (compound, measure_unit, readout_value) VALUES
  ('CC(=O)N1CCN(c2ccc(OCC3COC(Cn4ccnc4)(c4ccc(Cl)cc4Cl)O3)cc2)CC1 (racemic) [Racemic ketoconazole]', 'ng/mL', 11900);

###

Experiment: Toxicokinetics in the 28 day dog study of DIO-902 (with racemic ketoconazole group a);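 note: beagle dogs dosed orally once daily within a 28-day GLP study, 3 animals per sex per group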
Settings: male, beagle, plasma, po, 20 mg/kg, Drug concentration in plasma, dogs, 20 mg/kg oral, day 28, M, 1 h
METRIC NAME: concentration at 1 h (ng/mL)

INSERT INTO measurements (molecule, readout_value) VALUES
  ('CC(=O)N1CCN(c2ccc(OC[C@@H]3CO[C@@](Cn4ccnc4)(c4ccc(Cl)cc4Cl)O3)cc2)CC1 [DIO-902]', 9130);
